These measurements were taken from ChEMBL document CHEMBL1145452.

# Target: Transient receptor potential cation channel subfamily V member 1 (Homo sapiens)
# Sequence (Q8NER1 whole entry): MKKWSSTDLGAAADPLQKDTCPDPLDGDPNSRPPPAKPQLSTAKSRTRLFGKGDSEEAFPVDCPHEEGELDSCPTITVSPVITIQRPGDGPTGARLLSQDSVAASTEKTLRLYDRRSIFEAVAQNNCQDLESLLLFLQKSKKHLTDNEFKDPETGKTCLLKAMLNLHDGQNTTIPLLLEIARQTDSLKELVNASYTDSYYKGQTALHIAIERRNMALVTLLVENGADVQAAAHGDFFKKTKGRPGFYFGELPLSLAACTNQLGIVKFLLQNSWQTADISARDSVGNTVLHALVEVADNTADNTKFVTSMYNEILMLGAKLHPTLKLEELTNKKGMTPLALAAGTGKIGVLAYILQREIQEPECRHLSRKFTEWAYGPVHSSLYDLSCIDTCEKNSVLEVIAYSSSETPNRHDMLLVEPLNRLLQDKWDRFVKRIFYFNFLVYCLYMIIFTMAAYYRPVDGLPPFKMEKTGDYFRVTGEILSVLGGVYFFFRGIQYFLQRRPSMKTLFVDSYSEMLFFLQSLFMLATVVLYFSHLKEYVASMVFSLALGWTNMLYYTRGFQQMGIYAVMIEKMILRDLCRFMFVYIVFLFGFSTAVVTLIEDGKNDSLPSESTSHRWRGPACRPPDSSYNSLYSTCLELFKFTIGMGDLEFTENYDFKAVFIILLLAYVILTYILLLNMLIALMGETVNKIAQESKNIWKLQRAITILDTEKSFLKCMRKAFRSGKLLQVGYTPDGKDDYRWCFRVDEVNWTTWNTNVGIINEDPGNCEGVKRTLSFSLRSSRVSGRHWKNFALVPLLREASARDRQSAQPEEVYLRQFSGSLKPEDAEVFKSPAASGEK
# Test Summary: Antagonist activity at human TRPV1 receptor by calcium influx assay
Readout Name: IC50 (nM)

- Cc1cc2c(NC(=O)NCc3ccc(N4Cc5ccccc5C4)c(F)c3)cccc2cn1: 7360
- O=C(NCc1ccc(N2CCCCCC2)cc1C(F)(F)F)Nc1cccc2[nH]ncc12: 133
- O=C(NCc1ccc(N2CCCCCC2)c(C(F)(F)F)c1)Nc1cccc2cnccc12: 4.6

A: Nc1cc2c(NC(=O)NCc3ccc(N4CCCCCC4)cc3)cccc2cn1
B: O=C(NCc1ccc(N2[C@@H]3CCC[C@H]2CC3)c(F)c1F)Nc1cccc2[nH]ncc12
C: O=C(NCc1ccc(N2CCCCCC2)cc1C(F)(F)F)Nc1cccc2cnccc12
D: CCN1CCc2cc(CNC(=O)Nc3cccc4[nH]ncc34)ccc21
E: O=C(NCc1ccc(N2CCOCC2)cc1)Nc1cccc2cnc(Cl)cc12
Task field, ranking: reported IC50, descending order. Returns: the labels listed in the requested order.
D, E, B, A, C
(D: 285 nM, E: 156 nM, B: 25.5 nM, A: 9.8 nM, C: 5.7 nM)
